Test system: 786-0 renal
Assay procedure: NCI tumour cell line growth inhibition, 48 h
Assay readout: TGI (µM)
Field format: number, assumed µM, no unit text.

>  <Compound>
CCC[CH2][Sn]1([CH2]CCC)[O]CC(CN(C)Cc2ccccc2)[O]1 (stereo not given)

>  <Assay readout>
TGI

>  <Reported>
16.4

$$$$
>  <Compound>
CCOC(=O)N1CCC(=O)C(CNC23CC4CC(CC(C4)C2)C3)C1 (stereo not given)

>  <Assay readout>
TGI

>  <Reported>
29.4

$$$$
>  <Compound>
CCN(CC)c1ccc(C(O)C2=CC(=O)c3ccccc3C2=O)cc1 (stereo not given)

>  <Assay readout>
TGI

>  <Reported>
2.65

$$$$

Moving on to another compound below.
Request: Requested read-out: TGI. Entry: O=C(Nc1ccc(Cl)c(Cl)c1)Nc1c(Oc2ccc(Cl)c(Cl)c2)ccc(Cl)c1S(=O)(=O)O
Result: 29.8

====

Test system: NCI-H460 lung
Assay procedure: NCI tumour cell line growth inhibition, 48 h
Assay readout: TGI

Worked cases, answers included:
>  <Compound>
COC(=O)C(C(=O)C(=O)Nc1ccc([N+](=O)[O-])cc1[N+](=O)[O-])c1nc2ccc(Cl)cc2[nH]c1=O (stereo not given)

>  <TGI>
> 100 µM

$$$$
>  <Compound>
O=Nc1ccc(NO)c2ccccc12

>  <TGI>
51.3 µM

$$$$
>  <Compound>
O=C(c1ccccc1)C1OC1c1ccc([N+](=O)[O-])cc1 (stereo not given)

>  <TGI>
40.2 µM

$$$$
>  <Compound>
CC(C)NC(=O)OCc1c(CO)c2c(n1C)-c1ccccc1CC2

>  <TGI>
67.7 µM

$$$$

Next, consider the following compound.
Request: Which TGI value belongs to CC(C)=CCC/C(C)=C/CC/C(C)=C/CC/C(C)=C/CC/C(C)=C/CC/C(C)=C/CC/C(C)=C/CC/C(C)=C/CC/C(C)=C/CO ?
Result: > 100 µM

====

Test system: A498 renal
Assay procedure: NCI tumour cell line growth inhibition, 48 h
Catalogue of log10(TGI) readings, one per entry.
Please be aware that the numbers have been log10-transformed from TGI in µM.

>  <Compound>
COc1ccc2c(=O)cc(C(Cl)(Cl)Cl)oc2c1

>  <log10(TGI)>
0.53

$$$$

Request: Value lookup for log10(TGI); key = CC(=O)C1=C(O)C=C2Oc3c(C(=O)/C=C/c4c(Cl)cccc4Cl)c(O)c(C)c(O)c3[C@]2(C)C1=O
Result: 0.56

Request: What measured log10(TGI) goes with CCN(CC)c1ccc(C(O)C2=CC(=O)c3ccccc3C2=O)cc1 (stereo not given) ?
Result: 0.92

Request: Which log10(TGI) is reported for this compound? CN(Cc1ccccc1)c1ccc(CO)c(Cl)c1
Result: -0.67

Request: Which log10(TGI) value belongs to O=C(c1ccccc1)C(CN1CCCCC1)c1ccccc1 (stereo not given) ?
Result: 1.34

====

System: OVCAR-3 ovarian
Assay procedure: NCI tumour cell line growth inhibition, 48 h
Assay readout: TGI

>  <Molecule>
Cc1nnc(-c2cccc(-c3ccc(C(=O)NCC4CC4)cc3)c2)o1

>  <TGI>
> 25 µM

$$$$
>  <Molecule>
[N-]=[N+]=NC(c1cn(C2CC(O)C(CO)O2)c(=O)[nH]c1=O)C(Cl)I (stereo unspecified)

>  <TGI>
> 100 µM

$$$$
>  <Molecule>
N#Cc1c(-c2ccc(Cl)cc2)[nH]c(=O)n(C2OC(CO)C(O)C(O)C2O)c1=O (stereo unspecified)

>  <TGI>
> 100 µM

$$$$

Request: Given the entry C[C@]12CC/C(=N\O)C=C1CC[C@@H]1C2CC[C@@]2(C)C1CC[C@@H]2OC1CCCCO1 (stereo partly specified) , report its measured TGI.
Result: 31.9 µM

Request: For the molecule COC(=O)C1(C#N)C(C)(C)N=C(c2ccccc2)C12CCCCC2 (stereo unspecified) , what TGI is on record?
Result: > 100 µM

Request: GET /values?readout=TGI&item= N#CC(=N)c1ncn(-c2ccc(N)cc2)c1N
Result: > 100 µM

Request: Value lookup for TGI; key = NC(=O)Cc1nc2c(N)ncnc2n1C1OC(CO)C(O)C1O (stereo unspecified)
Result: > 100 µM

Request: Can you look up the measured TGI of CCC(=O)Nc1ccc(NC(C#N)c2cccc(Oc3ccccc3)c2)cc1 (stereo unspecified) for me?
Result: > 100 µM

Request: Requested field: TGI. Item: O=C(O)CCSCc1ccccc1
Result: > 100 µM

Request: Find the recorded TGI belonging to COC(=O)c1cccn1C(=O)n1cccc1 and report it.
Result: > 100 µM

Request: Consider the molecule CC(=O)Nc1c(C)cc2c(nc3n2CCC3OC(C)=O)c1[N+](=O)[O-] (stereo unspecified) and give its measured TGI.
Result: > 100 µM

====

In this section we review reported TGI values for a set of molecules.
System: M19-MEL melanoma
Assay procedure: NCI tumour cell line growth inhibition, 48 h

>  <Molecule>
CN1C(=O)C2C3C=C4c5ccccc5N(c5ccccc5)C4(C2C1=O)[C@H]1C(=O)N(C)C(=O)[C@@H]31 (some centres not stated)

>  <TGI>
> 100 µM

$$$$

Request: Consider the molecule CCC[CH2][Sn]1([CH2]CCC)[O]CC(CN(C)Cc2ccccc2)[O]1 (configuration not stated) and give its measured TGI.
Result: 19.8 µM

Request: Which value of TGI has been reported for COc1ccc(/C(Cl)=C(\C=N/O)c2ccc(OC)c(OC)c2)cc1OC in the records?
Result: > 100 µM

Request: Any idea what TGI was measured for C/C(CC(=O)Nc1ccc(C)c(C)c1)=N\NC(N)=O ?
Result: > 100 µM

Request: Returns the measured TGI for the input molecule. Input: O=C(c1ccccc1)C1OC12C(=O)Nc1c(Cl)cc(Cl)cc12 (configuration not stated)
Result: > 77.6 µM

Request: Quick one: TGI of Cn1cnc([N+](=O)[O-])c1Sc1nccn1-c1cccc2ccccc12 ?
Result: 98.9 µM

Request: What TGI value was documented for this molecule, CSc1nc(NC2OC(COC(C)=O)C(OC(C)=O)C(OC(C)=O)C2OC(C)=O)c2c(n1)OCC2=O (configuration not stated) ?
Result: > 100 µM

Request: Reported TGI for Cc1ccc(NC(=O)CC2Sc3ccccc3NC2=O)c(C)c1 (configuration not stated) : what is it?
Result: 48.2 µM

Request: Entry COC(=O)C(C(=O)C(=O)Nc1ccc([N+](=O)[O-])cc1[N+](=O)[O-])c1nc2ccc(Cl)cc2[nH]c1=O (configuration not stated) : reported TGI = ?
Result: > 100 µM

Request: I am curious: what TGI value has been reported for COC(=O)c1ccc(N=NN(C)COc2ccc(Br)cc2)cc1 ?
Result: > 100 µM

Request: What value of measured TGI is listed for COC1C(O)C(n2ncc3c(SC)nc(SC)nc32)OC1C(O)CO (configuration not stated) ?
Result: > 100 µM

Request: Which TGI value belongs to Cc1cccc(C)c1NC(=O)C1C(=O)N(c2c(C)cccc2C)C(=O)/C1=N\N (configuration not stated) ?
Result: > 100 µM

====

Tested on: U251 CNS
Assay procedure: NCI tumour cell line growth inhibition, 48 h
Assay readout: TGI

Answered examples (5):
>  <Compound>
Clc1ccc(-c2c3c(nn2-c2ccccn2)CCc2ccccc2-3)cc1Cl

>  <Measurement target>
U251 CNS

>  <TGI>
> 100 µM

$$$$
>  <Compound>
COC(O)C(=O)c1ccc2c(c1)CC1(C2)Cc2cc3c(cc2C1=O)CCC3 (stereo not given)

>  <Measurement target>
U251 CNS

>  <TGI>
35.5 µM

$$$$
>  <Compound>
CC(=O)OCC1OC(Nn2c(=O)[nH]c3ccccc3c2=O)C(OC(C)=O)C(OC(C)=O)C1OC(C)=O (stereo not given)

>  <Measurement target>
U251 CNS

>  <TGI>
> 100 µM

$$$$
>  <Compound>
C[As](C)SCC(COC(=O)C(Cl)c1ccccc1)OC(=O)C(Cl)c1ccccc1 (stereo not given)

>  <Measurement target>
U251 CNS

>  <TGI>
31.6 µM

$$$$
>  <Compound>
C/C(CC(O)(/C=N/O)c1ccccc1)=N/O (stereo not given)

>  <Measurement target>
U251 CNS

>  <TGI>
> 100 µM

$$$$

With those in mind, consider the next compound.
Request: // query TGI value for entry CC12CCC3(OCCO3)C(OC(=O)c3ccccc3)=C1CCC21OCCO1 (stereo not given)
Result: > 100 µM

====

Listed here: items and their measured TGI.
Tested on: OVCAR-3 ovarian
Assay procedure: NCI tumour cell line growth inhibition, 48 h

Example cases with answers are listed next.
>  <Molecule>
C/C(CC(=O)Nc1ccc(C)c(C)c1)=N\NC(N)=O

>  <Assay readout>
TGI

>  <Reported>
> 100 µM

$$$$
>  <Molecule>
NC(=O)NCCCC(NC(=O)OCCCCCCn1ccc(=O)[nH]c1=O)C(=O)O (stereo unspecified)

>  <Assay readout>
TGI

>  <Reported>
> 100 µM

$$$$
>  <Molecule>
O=c1c(Br)cc2nc3ccccc3sc-2c1Br

>  <Assay readout>
TGI

>  <Reported>
32.5 µM

$$$$

Request: Consider the molecule Clc1ccc(-c2c3c(nn2-c2ccccn2)CCc2ccccc2-3)cc1Cl and give its measured TGI.
Result: > 100 µM

Request: What does the record list as TGI for O=c1cc(-c2cccc3c2Sc2ccccc2S3)oc(N2CCOCC2)c1 ?
Result: 21.9 µM

Request: So what does the record say about TGI for O=C(O)CCC(N=Cc1nc(-c2ccccc2)oc1O)C(=O)O (stereo unspecified) ?
Result: > 100 µM

Request: Endpoint output: TGI of Cc1ccc(NC(=O)CC2Sc3ccccc3NC2=O)c(C)c1 (stereo unspecified) . Value?
Result: 28.6 µM

Request: # lookup: TGI of CS(=O)(=O)c1ccc(N=C/C=C/Nc2ccc(S(C)(=O)=O)cc2)cc1
Result: > 100 µM

Request: // query TGI value for entry CS(=O)(=O)CCc1cccc(C(=O)c2cnn(-c3ccc(F)cc3)c2N)c1
Result: > 25 µM

Request: Quick one: TGI of COc1cc(NCCCN=C(N)NC(N)=NC(C)C)c2ncccc2c1 ?
Result: 0.876 µM

Request: Could you share which TGI value was measured for NC(Cc1ccc(N(CCCl)CCCl)cc1)C(=O)NC(CCC(=O)O)C(=O)O (stereo unspecified) ?
Result: > 100 µM
